Recorded values, source patent US20090239928A1.

Molecular target: human noradrenaline transporter (hNET) (Homo sapiens)
Construct: expressed in transfected cells; host or cells: HEK-293
Sequence (P23975 whole entry): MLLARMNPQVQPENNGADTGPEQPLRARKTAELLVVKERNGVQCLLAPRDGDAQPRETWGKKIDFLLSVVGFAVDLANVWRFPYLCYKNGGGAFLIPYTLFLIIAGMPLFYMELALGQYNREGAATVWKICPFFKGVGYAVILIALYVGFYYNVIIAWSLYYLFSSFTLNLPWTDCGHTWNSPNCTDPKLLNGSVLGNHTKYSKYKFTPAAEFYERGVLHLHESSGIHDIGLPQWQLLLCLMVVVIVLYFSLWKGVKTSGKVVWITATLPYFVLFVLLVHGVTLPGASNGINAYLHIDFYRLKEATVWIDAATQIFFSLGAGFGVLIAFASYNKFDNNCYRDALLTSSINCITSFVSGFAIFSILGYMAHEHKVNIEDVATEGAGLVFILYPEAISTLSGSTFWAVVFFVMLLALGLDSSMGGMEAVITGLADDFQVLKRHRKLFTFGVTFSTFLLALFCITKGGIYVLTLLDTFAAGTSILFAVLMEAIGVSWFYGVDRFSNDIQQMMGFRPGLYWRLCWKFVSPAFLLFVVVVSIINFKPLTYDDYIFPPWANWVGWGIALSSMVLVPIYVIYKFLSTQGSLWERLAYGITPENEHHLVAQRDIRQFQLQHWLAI
Test: SPA radioligand binding at human noradrenaline transporter (3H-nisoxetine)
Conditions: hNET membranes from HEK-293 cells, 3H-nisoxetine, SPA; read-out: NRI Ki
pKi: −log10 of the molar value. Structures can show the parent of a compound that is named as a salt.

compound	pKi
O=C(c1ccccc1Oc1ccccc1)N(C1CCCC1)[C@H]1CCNC1 [Example 4, hydrochloride]	7.92
O=C(c1ccccc1Oc1ccccc1)N(c1ccccc1)[C@H]1CCNC1 [Example 14, hydrochloride]	8.52
O=C(c1ccccc1C1CCCC1)N(CC1CC1)[C@H]1CCNC1 [Example 19, hydrochloride]	7.80
CCCN(C(=O)c1cc(F)ccc1Oc1ccccc1)[C@H]1CCNC1 [Example 7, hydrochloride]	8.05
CSc1ccccc1C(=O)N(C1CCCCC1)[C@H]1CCNC1 [Example 20, hydrochloride]	8.30
